Assay: Pharmacokinetics in fasted SD rats (PO and IV)
Type: in vivo
Settings: rat, plasma, IV 1 mg/kg, read-out: IV parameters CL
result_type: clearance (mL/min/kg)

molecule="C[C@@]1(c2ccc(Cl)cc2F)Oc2cccc(C3=CC[C@@H](Cc4nc5ccc(C(=O)O)cc5n4C[C@@H]4CCO4)OC3)c2O1 (single isomer, unassigned)" result_type=clearance measured_value=9.7

(I) C[C@]1(c2ccc(Cl)cc2F)Oc2cccc(-c3ccc(Cc4nc5ccc(C(=O)O)cc5n4C[C@@H]4CCO4)cc3)c2O1 (single isomer, unassigned)
(II) O=C(O)c1ccc2nc(C[C@H]3CC[C@H](c4cccc(OCc5ccc(Cl)cc5F)n4)CO3)n(Cc3cncs3)c2c1 (single isomer, unassigned)
Q: Between I and II , whose recorded clearance is greater? Your choice should be expressed through its label.
Result: II

The origin of these recorded values is patent US20220348564A1.
